Every entry's value here was drawn from patent US20090143279A1.

System: cellular dehydrogenase activity
Test Parameters: Table 4; C2C12 myotubes, 48 h, composite Z-score
Endpoint: MTT

Field: example entries. Status: answers known.
{"Compound": "Oc1ccc([C@H]2Oc3cc(O)cc(O)c3C[C@H]2O)cc1 [epiafzelechin(2r,3r)(−), reference compound]", "Recorded Result": "−0.486"}
{"Compound": "COc1cc(OC)c2c(c1Cl)O[C@@]1(C(=O)CC(=O)C[C@H]1C)C2=O [griseofulvic acid, reference compound]", "Recorded Result": "−0.469"}
{"Compound": "COc1cc2c(cc1OC)[C@@H]1C(=O)c3c(O)cc4c(c3O[C@@H]1CO2)C=CC(C)(C)O4 [alpha-toxicarol, reference compound]", "Recorded Result": "−1.982"}
{"Compound": "COc1cc2c(cc1OC)[C@@H]1C(=O)c3ccc4c(c3O[C@@H]1CO2)CC(C(C)C)O4 (stereo partly drawn) [beta-dihydrorotenone, reference compound]", "Recorded Result": "−2.771"}
{"Compound": "O=c1cc(-c2cc(O)c(O)c(O)c2)oc2cc(O)cc(O)c12 [hieracin, reference compound]", "Recorded Result": "−0.557"}

Consider the record given below.
Q: Which value of MTT has been reported for COc1ccc([C@H]2Oc3c(I)c(OC)cc(OC)c3C[C@@H]2O)cc1OC [8-iodocatechin tetramethyl ether, reference compound] in the records?
Ans: −1.359
